Where these numbers come from: paper PMC9394474

target-entity: T1, human hisTRIM7-PRYSPRY (human, UniProt Q9C029 342-511)
T1 construct: vector pOPTH; also called hTRIM7-PRYSPRY; hTRIM7
experiment-description: ITC
assay-context: both partners purified
measurement-name: pKd
Lab note — pKd values are minus log10 of concentrations in M.

Looking up `AAAAALQ` , I found its pKd recorded as 5.10
